TEST SYSTEM: CB1 cannabinoid receptor (Rattus norvegicus, UniProt P20272)
Construct: membranes were prepared from rat forebrain membranes; from tissue; host or cells: rat forebrain
Sequence (P20272 whole entry): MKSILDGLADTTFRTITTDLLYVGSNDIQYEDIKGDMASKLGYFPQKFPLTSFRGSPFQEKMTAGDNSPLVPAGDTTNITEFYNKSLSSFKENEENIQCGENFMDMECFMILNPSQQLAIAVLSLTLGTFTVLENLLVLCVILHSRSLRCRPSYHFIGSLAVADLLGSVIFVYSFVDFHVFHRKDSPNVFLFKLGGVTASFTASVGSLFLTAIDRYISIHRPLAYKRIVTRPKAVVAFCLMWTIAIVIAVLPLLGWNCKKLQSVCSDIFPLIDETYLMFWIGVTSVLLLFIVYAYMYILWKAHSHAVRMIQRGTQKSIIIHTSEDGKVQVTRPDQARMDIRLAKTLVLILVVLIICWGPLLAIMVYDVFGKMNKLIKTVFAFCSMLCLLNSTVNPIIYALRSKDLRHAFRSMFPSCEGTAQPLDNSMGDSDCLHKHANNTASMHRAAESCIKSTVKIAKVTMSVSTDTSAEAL
ASSAY METHOD TEXT: CB1 receptor binding, rat forebrain membranes, [3H] CP-55,940 displacement
SETUP CONDITIONS: rat forebrain membranes, 0.8 nM [3H] CP-55,940; read-out: affinities Ki CB1
pKi: −log10 of the molar value.
Cut-off 7 on pKi, inclusive. At or above means YES; below means NO.

The examples below pair each entry with its known result.
COMPOUND | CLASS
Cn1nnc(-c2ccc(-c3c(CO)c(C(=O)NN4CCCCC4)nn3-c3ccc(Cl)cc3Cl)cc2)n1 | YES
O=C(NC1CCCCC1)c1nn(-c2ccc(Cl)cc2Cl)c(-c2ccc(-c3nnn[nH]3)cc2)c1CO | NO
Cc1c(C(=O)NN2CCCCC2)nn(-c2ccc(Cl)cc2Cl)c1-c1ccc(-c2nnn[nH]2)cc1 | NO
CCOCc1c(C(=O)NC2CCCCC2)nn(-c2ccc(Cl)cc2Cl)c1-c1ccc(Br)cc1 | YES
CCCCCC=Cc1nn(-c2ccc(Cl)cc2Cl)c(-c2ccc(Br)cc2)c1C | NO
Cc1c(C=CC23CC4CC(CC(C4)C2)C3)nn(-c2ccc(Cl)cc2Cl)c1-c1ccc(Br)cc1 | NO
Cc1c(C(=O)NN2CCCCC2)nn(-c2ccc(Cl)cc2Cl)c1-c1ccc(-c2cccnc2)cc1 | YES
COCc1c(C(=O)NC2CCCCC2)nn(-c2ccc(Cl)cc2Cl)c1-c1ccc(I)cc1 | YES

Let's switch to this compound now.
Does Cc1c(C=Cc2ccccc2)nn(-c2ccc(Cl)cc2Cl)c1-c1ccc(Br)cc1 [Compound 1-23] have a reported pKi of at least 7? NO
